Molecular target: NMDA receptor (GRIN1/GRIN2A subunits) expressed in HEK cells (Homo sapiens, UniProt Q05586+Q12879)
Construct: expressed in transfected cells
Sequence (Q12879 23-1464, other chains not shown): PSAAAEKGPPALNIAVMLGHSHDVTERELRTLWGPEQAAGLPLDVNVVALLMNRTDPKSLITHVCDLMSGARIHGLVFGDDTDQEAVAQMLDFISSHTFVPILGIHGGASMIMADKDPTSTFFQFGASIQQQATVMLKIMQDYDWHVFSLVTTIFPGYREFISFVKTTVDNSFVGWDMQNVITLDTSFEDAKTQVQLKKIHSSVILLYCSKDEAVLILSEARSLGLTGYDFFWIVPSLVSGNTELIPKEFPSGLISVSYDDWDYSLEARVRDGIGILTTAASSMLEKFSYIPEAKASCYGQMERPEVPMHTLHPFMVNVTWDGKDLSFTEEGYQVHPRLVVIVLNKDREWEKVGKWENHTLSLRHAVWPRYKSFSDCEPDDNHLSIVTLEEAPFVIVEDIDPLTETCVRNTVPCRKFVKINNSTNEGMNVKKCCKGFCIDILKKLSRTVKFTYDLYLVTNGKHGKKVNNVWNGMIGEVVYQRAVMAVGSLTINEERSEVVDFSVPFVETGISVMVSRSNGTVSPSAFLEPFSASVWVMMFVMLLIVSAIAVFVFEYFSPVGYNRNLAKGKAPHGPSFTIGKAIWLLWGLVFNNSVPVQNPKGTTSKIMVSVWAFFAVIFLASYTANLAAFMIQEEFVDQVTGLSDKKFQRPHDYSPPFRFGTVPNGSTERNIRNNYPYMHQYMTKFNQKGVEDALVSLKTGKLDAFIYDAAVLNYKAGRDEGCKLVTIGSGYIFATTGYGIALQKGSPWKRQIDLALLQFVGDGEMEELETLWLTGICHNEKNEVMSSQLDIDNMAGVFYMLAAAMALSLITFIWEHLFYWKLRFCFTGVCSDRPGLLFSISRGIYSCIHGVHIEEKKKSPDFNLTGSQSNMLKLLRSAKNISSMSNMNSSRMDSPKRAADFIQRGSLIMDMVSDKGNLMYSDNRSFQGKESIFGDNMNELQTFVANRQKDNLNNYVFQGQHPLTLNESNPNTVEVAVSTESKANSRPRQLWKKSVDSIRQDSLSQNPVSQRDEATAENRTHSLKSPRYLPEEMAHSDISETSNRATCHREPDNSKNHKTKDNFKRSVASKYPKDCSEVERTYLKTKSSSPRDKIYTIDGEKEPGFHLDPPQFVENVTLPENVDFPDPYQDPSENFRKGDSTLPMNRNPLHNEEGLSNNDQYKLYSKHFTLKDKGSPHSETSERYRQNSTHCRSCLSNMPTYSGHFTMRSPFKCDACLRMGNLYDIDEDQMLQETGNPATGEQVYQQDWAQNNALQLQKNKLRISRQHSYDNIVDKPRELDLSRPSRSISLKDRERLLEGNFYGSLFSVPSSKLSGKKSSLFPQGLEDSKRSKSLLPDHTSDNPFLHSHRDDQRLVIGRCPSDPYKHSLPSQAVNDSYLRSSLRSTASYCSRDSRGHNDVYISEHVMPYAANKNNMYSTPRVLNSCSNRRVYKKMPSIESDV
Assay: Whole-cell patch clamp of mammalian cells, NMDA potentiation
Assay type: cell-based
Parameters: key: “A” indicates >5 to 50%; B: >50%; C indicates not active in the assay
Settings: 1 μM test article, 30 μM NMDA and 5.0 μM glycine, holding potential −80 mV
Test Readout: NMDA 1a2A (%) Potentiation 1 μM

# Structure Notation, Test Readout, Endpoint Value
data = [
    ("COC[C@]12CC[C@](C)(O)C[C@@H]1CC[C@H]1[C@@H]3CC[C@H]([C@H](C)CCCO)[C@@]3(C)CC[C@@H]12", "NMDA 1a2A (%) Potentiation 1 μM", "C"),
]
